Test Description: Metabolic stability in mouse liver microsomes assessed as hepatic extraction ratio incubated for 60 mins by LC-MS/MS analysis
Reported Property: hepatic extraction ratio at 1 h

1: CCN1CCN(c2nc(NCc3ccc(CN(C)C)cc3)nc3c2ncn3CCCN2CCCC2)CC1
2: Fc1ccc(CNc2nc(N3CCN(C4CCCC4)CC3)c3ncn(CCCN4CCCC4)c3n2)cc1
hepatic extraction ratio at 1 h comparison. Which is larger, 1 or 2 ? In your reply, give the label of the chosen option.
2
(2: 0.385, 1: 0.114)

----------
Test Description: Apparent permeability across basolateral to apical side in human Caco2 cells at 10 uM measured after 10 mins by LC-MS/MS analysis
Reported Conditions: Caco-2
Reported Property: Papp B→A at 10 min, 10 µM (×10⁻⁶ cm/s)

Chemical String	Reported Property	Reading
CCN1CCN(c2nc(NCc3ccc(CN(C)C)cc3)nc3c2ncn3CCCN2CCCC2)CC1	Papp B→A at 10 min, 10 µM	61.2

I: Fc1ccc(CNc2nc(N3CCN(C4CCCC4)CC3)c3ncn(CCCN4CCCC4)c3n2)cc1
II: CCN1CCN(CCCn2cnc3c(N4CCN(CC)CC4)ncnc32)CC1
Determine, for I and II , which has the greater value of Papp B→A at 10 min, 10 µM. Response format: the label of the selected entry.
I
(I: 62 ×10⁻⁶ cm/s, II: 9.28 ×10⁻⁶ cm/s)

----------
Target Under Test: Toll-like receptor 7 (Homo sapiens, UniProt Q9NYK1)
Sequence (Q9NYK1 whole entry): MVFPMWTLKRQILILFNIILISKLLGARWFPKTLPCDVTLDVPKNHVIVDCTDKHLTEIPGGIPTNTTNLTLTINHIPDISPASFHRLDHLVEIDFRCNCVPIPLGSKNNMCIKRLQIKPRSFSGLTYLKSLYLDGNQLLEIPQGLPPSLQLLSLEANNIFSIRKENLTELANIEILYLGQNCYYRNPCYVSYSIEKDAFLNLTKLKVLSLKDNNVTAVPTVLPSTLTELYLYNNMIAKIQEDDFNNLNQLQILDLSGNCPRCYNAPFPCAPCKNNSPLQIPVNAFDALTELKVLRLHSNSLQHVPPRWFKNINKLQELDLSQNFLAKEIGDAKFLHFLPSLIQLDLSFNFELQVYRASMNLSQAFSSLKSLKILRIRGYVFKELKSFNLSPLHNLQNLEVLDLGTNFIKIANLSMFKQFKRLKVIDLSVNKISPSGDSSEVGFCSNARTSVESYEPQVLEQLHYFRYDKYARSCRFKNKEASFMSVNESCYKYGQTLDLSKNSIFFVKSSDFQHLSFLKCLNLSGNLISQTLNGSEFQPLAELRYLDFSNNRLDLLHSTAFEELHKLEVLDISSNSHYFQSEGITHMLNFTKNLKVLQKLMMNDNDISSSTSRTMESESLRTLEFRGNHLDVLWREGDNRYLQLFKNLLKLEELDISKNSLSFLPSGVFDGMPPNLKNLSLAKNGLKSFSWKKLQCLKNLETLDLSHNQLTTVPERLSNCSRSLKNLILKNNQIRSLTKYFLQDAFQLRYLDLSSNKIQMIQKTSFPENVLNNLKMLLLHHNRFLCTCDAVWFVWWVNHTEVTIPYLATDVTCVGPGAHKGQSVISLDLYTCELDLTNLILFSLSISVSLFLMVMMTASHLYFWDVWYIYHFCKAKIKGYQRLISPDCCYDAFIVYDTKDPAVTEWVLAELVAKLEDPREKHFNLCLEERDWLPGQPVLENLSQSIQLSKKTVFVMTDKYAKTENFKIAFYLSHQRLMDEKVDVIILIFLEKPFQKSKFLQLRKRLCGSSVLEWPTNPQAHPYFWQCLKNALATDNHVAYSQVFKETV
Test Description: Antagonist activity at human TLR7 expressed in HEK-blue-HTLR7 cells assessed as inhibition of CL264-induced NFkappaB activation measured after overnight incubation by SEAP-based spectrophotometry assay
pIC50: −log10 of the molar value.
Reported Property: pIC50

Worked set:
Chemical String	pIC50
CCN1CCN(CCCn2cnc3c(N4CCN(CC)CC4)ncnc32)CC1	5.32
CCN1CCN(CCCn2cnc3c(N4CCN(CC)CC4)nc(NCc4ccccc4)nc32)CC1	5.12
CCN1CCN(CCCn2cnc3c(N4CCN(CC)CC4)nc(N4CCCC4)nc32)CC1	5.07
CCN1CCN(CCCn2cnc3c(N4CCN(C5CCCC5)CC4)nc(N)nc32)CC1	4.88
COc1ccc(CNc2nc(N3CCN(C4CCCC4)CC3)c3ncn(CCCN4CCCC4)c3n2)cc1	4.93

P: CCN1CCN(CCCn2cnc3c(N4CCN(CC)CC4)nc(NCc4ccc(OC)cc4)nc32)CC1
Q: CCN1CCN(CCCn2cnc3c(N4CCN(CC)CC4)nc(N)nc32)CC1
R: CCN1CCN(CCCn2cnc3c(N4CCN(CC)CC4)nc(NCc4ccc(F)cc4)nc32)CC1
Which order do these items take when sorted by rising pIC50? List them. Please list the labels according to the requested order.
Q, R, P
(Q: 4.79, R: 4.99, P: 5.28)

----------
Test Description: Metabolic stability in human liver microsomes assessed as compound remaining incubated for 60 mins by LC-MS/MS analysis
Reported Property: remaining at 1 h (%)

Chemical String	remaining at 1 h / %
Fc1ccc(CNc2nc(N3CCN(C4CCCC4)CC3)c3ncn(CCCN4CCCC4)c3n2)cc1	2.9

a: CCN1CCN(c2nc(NCc3ccc(CN(C)C)cc3)nc3c2ncn3CCCN2CCCC2)CC1
b: CCN1CCN(CCCn2cnc3c(N4CCN(CC)CC4)ncnc32)CC1
Between item a and item b , which reported remaining at 1 h is smaller? Respond using the label that marks the chosen record.
a
(a: 50.7%, b: 75.8%)
